# system.under.test: human PTH1 receptor (Homo sapiens, UniProt Q03431)
# Sequence (Q03431 27-593): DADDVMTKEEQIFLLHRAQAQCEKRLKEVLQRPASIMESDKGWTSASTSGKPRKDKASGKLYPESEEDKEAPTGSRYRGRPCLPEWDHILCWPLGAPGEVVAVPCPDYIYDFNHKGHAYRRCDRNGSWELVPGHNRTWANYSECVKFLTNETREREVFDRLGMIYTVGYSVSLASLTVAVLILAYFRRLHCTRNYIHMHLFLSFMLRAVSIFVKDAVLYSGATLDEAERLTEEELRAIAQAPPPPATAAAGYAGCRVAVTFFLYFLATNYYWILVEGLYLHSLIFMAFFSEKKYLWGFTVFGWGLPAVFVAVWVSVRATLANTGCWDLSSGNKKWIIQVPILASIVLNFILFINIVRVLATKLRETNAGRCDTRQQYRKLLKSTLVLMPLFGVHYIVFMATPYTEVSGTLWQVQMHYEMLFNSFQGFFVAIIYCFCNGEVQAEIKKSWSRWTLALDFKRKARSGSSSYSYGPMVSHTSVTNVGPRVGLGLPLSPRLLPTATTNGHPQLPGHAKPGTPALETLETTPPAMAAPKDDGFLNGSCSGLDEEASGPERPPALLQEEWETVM
# test.description: In vitro cAMP signal activity in HKRK-B7 cells (LLC-PK1 cells overexpressing the human PTH1 receptor)
# Assay type: cell-based
# conditions.used: HKRK-B7 cells; compound at 1×10^−3 M; cAMP produced as percentage of that produced by hPTH(1-34) at 100 nM
measurement.label: cAMP production activity (%)
Numbers only; they are read as %.

Some solved cases for reference:
INPUT: // lookup cAMP production activity (%) for Cc1cc(C(=O)N2CC(O)C2)cc(C)c1/C=C/S(=O)(=O)N1CCC2(CC1)N=C(c1ccc(F)c(OC(F)(F)F)c1)NC2=O
OUTPUT: 10

INPUT: Same question, Cc1cc(NCC2CNC(=O)O2)ccc1CCS(=O)(=O)N1CCC2(CC1)N=C(C1CCCCC1)NC2=O (centres unmarked) this time
OUTPUT: 92

INPUT: Same question, Cc1cc(N(C)C(N)=O)cc(C)c1CC[S@TB4](=O)(=O)N1CCC2(CC1)N=C(CCCCCCCCCCCF)NC2=O this time
OUTPUT: 106

INPUT: Same question, CCCCS(=O)(=O)N1CCC2(CC1)N=C(c1ccc(Cl)cc1Cl)NC2=O this time
OUTPUT: 17

INPUT: Same question, CC(=O)N(C[C@H](O)CO)c1cc(C)c(CCS(=O)(=O)N2CCC3(CC2)N=C(CCCCCCCCC(F)(F)F)NC3=O)c(C)c1 this time
OUTPUT: 140

INPUT: Same question, Cc1cc(C(=O)N(C)C)ccc1CCS(=O)(=O)N1CCC2(CC1)N=C(c1cccc(-c3c(C)noc3C)c1)NC2=O this time
OUTPUT: 36

More entries:
INPUT: // lookup cAMP production activity (%) for CONC(=O)Cc1ccc(/C=C/S(=O)(=O)N2CCC3(CC2)N=C(C2CCC(C)CC2)NC3=O)c(C)c1 (centres unmarked)
OUTPUT: 50

INPUT: Same question, Cc1cc(C(=O)N(C)C)ccc1CCS(=O)(=O)N1CCC2(CC1)N=C(c1cccc(OC(F)(F)F)c1)N=C2NCC1CCCCC1 this time
OUTPUT: 4.3

INPUT: Same question, CC[C@H]1CC[C@H](C2=NC3(CCN(S(=O)(=O)CCc4ccc(N)c(Cl)c4C)CC3)C(=O)N2)CC1 this time
OUTPUT: 84

INPUT: Same question, Cc1cc2ccc1CCS(=O)(=O)N1CCC3(CC1)N=C(NC3=O)c1cc(cc(C(F)(F)F)c1)OCCCCCCCCN(C)C2=O this time
OUTPUT: 7.2

INPUT: Same question, O=C1NC(C2CCCCC2)=NC12CCN(S(=O)(=O)CCC/C=C/c1cccc3[nH]ccc13)CC2 this time
OUTPUT: 28

----------
# system.under.test: UniProtKB Q03431
# test.description: In vitro cAMP signal activity in HKRK-B7 cells (LLC-PK1 cells overexpressing the human PTH1 receptor)
# Assay type: cell-based
# conditions.used: HKRK-B7 cells; compound at 1×10^−3 M; cAMP produced as percentage of that produced by hPTH(1-34) at 100 nM
measurement.label: cAMP production activity (%)
Numbers only; they are read as %.

INPUT: // lookup cAMP production activity (%) for CC(=O)Nc1ccc(CCS(=O)(=O)N2CCC3(CC2)N=C(C2CCCCC2)NC3=O)c(C#N)c1
OUTPUT: 63
